Test system: MDA-MB-231
Assay: Cytotoxicity against human MDA-MB-231 cells assessed as growth inhibition after 72 hrs by SRB assay
Assay type: functional, cell-based
Settings: MDA-MB-231, 72 h
pIC50: −log10 of the molar value.
measured quantity: pIC50

Some solved cases for reference:
C/C=C(\C)C(=O)O[C@H]1[C@@H]2O[C@H]3[C@H](O[C@@H](CCC)CCCCCCCCCC(=O)O[C@@H]4[C@@H](O)[C@H](C)O[C@@H](O[C@H]5[C@H](O)[C@@H](C)O[C@@H](O[C@H]([C@H]1O)[C@H](C)O2)[C@@H]5O[C@@H]1O[C@@H](C)[C@H](O)[C@@H](O)[C@H]1OC(=O)[C@H](C)[C@@H](C)O)[C@@H]4O)O[C@H](C)[C@@H](O)[C@@H]3O ... < 4.70
CC[C@]1(O)C[C@@H]2CN(CCc3c([nH]c4ccccc34)[C@@](C(=O)OC)(c3cc4c(cc3OC)N(C)[C@H]3[C@@](O)(C(=O)OC)[C@H](OC(C)=O)[C@]5(CC)C=CCN6CC[C@]43[C@@H]65)C2)C1 ... 8.00

Input: Record request: pIC50 value, item CCC[C@H]1CCCCCCCCCC(=O)O[C@H]2[C@H](O[C@H]3[C@H](O)[C@@H](C)O[C@@H](O[C@H]4[C@H](O1)O[C@H](C)[C@@H](O)[C@@H]4O)[C@@H]3O[C@@H]1O[C@@H](C)[C@H](OC(C)=O)[C@@H](O)[C@H]1O)O[C@H](C)[C@@H](O)[C@@H]2OC(=O)[C@H](C)[C@@H](C)O
Output: < 4.70
